# system.tested: hα2C receptor (Homo sapiens, UniProt P18825)
# Construct: expressed in transfected cells; host or cells: CHO cells, stably transfected; membrane preparation
# Sequence (P18825 whole entry): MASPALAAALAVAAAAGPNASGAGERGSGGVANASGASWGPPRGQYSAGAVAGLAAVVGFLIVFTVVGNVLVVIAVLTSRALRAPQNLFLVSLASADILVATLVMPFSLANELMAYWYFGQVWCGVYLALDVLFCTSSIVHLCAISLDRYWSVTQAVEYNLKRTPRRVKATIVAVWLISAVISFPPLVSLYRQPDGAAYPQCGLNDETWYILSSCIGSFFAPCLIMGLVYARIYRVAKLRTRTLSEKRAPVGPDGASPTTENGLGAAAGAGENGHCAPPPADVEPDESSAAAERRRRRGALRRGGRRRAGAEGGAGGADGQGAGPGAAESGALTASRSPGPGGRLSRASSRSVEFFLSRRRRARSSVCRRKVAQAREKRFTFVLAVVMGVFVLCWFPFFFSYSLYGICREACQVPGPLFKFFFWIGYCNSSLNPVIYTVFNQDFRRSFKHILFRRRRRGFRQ
# assay: Radioligand binding experiment for α2C-adrenoceptor ([3H]raulwolscine, CHO cell membranes)
# settings: [3H]raulwolscine binding, read-out: h-α2C pIC50 (converted)
// classify: if (IC50 < 4 nM) True else False

These recorded examples may help you get a feel for the data.
# smiles.entry, qualitative.label
rows = [
    ("C/C(=C\\c1ccccc1)CN1CCC(Nc2nccn(CCCN(CC(=O)c3ccccc3)Cc3ccccc3)c2=O)CC1", "True"),
    ("C/C(=C\\c1ccccc1)CN1CCC(Nc2nccn(CCCN(C)C(=O)c3ccccc3)c2=O)CC1", "False"),
    ("C/C(=C\\c1ccccc1)CN1CCC(Nc2nccn(CCCN(Cc3ccccc3)S(=O)(=O)c3ccccc3)c2=O)CC1", "False"),
]

Query string: Please check: IC50 for `C/C(=C\c1ccccc1)CN1CCC(Nc2nccn(-c3ccccc3)c2=O)CC1` , strictly under 4 nM or not?
Result string: False

Query string: Thanks! And `C/C(=C\c1ccccc1)CN1CCN(c2nccn(Cc3ccccc3)c2=O)CC1` ?
Result string: False

Query string: Thanks! And `C/C(=C\c1ccccc1)CN1CCC(Nc2nccn(-c3cccc(N4CCCCC4)c3)c2=O)CC1` ?
Result string: True

---

# system.tested: hα2C receptor (Homo sapiens, UniProt P18825)
# Construct: expressed in transfected cells; host or cells: CHO cells, stably transfected; membrane preparation
# assay: Radioligand binding experiment for α2C-adrenoceptor ([3H]raulwolscine, CHO cell membranes)
# settings: [3H]raulwolscine binding, read-out: h-α2C pIC50 (converted)
This section presents molecules with their documented IC50 values.
Your answer should be a plain number; it is taken to be in nM.

Reference set, count: 3
# smiles.entry, readout.unit, IC50
data = [
    ("C/C(=C\\c1ccccc1)CN1CCC(Nc2nccn(-c3ccc(CN4CCOCC4)cc3)c2=O)CC1", "nM", 6.31),
    ("C/C(=C\\c1ccccc1)CN1CCC(Nc2nccn(-c3ccc(C(=O)N4CCN(CCc5ccccc5)CC4)cc3)c2=O)CC1", "nM", 15.8),
    ("C/C(=C\\c1ccccc1)CN1CCC(Nc2nccn(CC(=O)N(CCCN3CCCC3=O)Cc3ccc(F)cc3)c2=O)CC1", "nM", 3.16),
]

Query string: Which IC50 value belongs to `C/C(=C\c1ccccc1)CN1CCC(Nc2nccn(-c3ccc(-c4ccccc4)cc3)c2=O)CC1` ?
Result string: 7.94

Query string: Thanks! And `C/C(=C\c1ccccc1)CN1CCC(Nc2nccn(CCCNc3ccccc3)c2=O)CC1` ?
Result string: 7.94

Query string: Thanks! And `C/C(=C\c1ccccc1)CN1CCC(Nc2nccn(-c3cccc(NS(=O)(=O)Cc4ccccc4)c3)c2=O)CC1` ?
Result string: 12.6

Query string: Thanks! And `C/C(=C\c1ccccc1)CN1CCC(Nc2nccn(Cc3cccc(CN4CCOCC4)c3)c2=O)CC1` ?
Result string: 10

Query string: Thanks! And `C/C(=C\c1ccccc1)CN1CCC(Nc2nccn(CC(=O)N(C)C3CCCCC3)c2=O)CC1` ?
Result string: 3.98

---

This section presents compounds with their documented IC50 values.
# system.tested: 5HT-Transporter (Homo sapiens, UniProt P31645)
# Construct: Human platelet membranes (Oceanix Biosciences Corporation, Hanover, Md., USA) were thawed; tissue Oceanix Biosciences Corporation, Hanover, Md., USA; host or cells: human platelet membranes
# Sequence (P31645 whole entry): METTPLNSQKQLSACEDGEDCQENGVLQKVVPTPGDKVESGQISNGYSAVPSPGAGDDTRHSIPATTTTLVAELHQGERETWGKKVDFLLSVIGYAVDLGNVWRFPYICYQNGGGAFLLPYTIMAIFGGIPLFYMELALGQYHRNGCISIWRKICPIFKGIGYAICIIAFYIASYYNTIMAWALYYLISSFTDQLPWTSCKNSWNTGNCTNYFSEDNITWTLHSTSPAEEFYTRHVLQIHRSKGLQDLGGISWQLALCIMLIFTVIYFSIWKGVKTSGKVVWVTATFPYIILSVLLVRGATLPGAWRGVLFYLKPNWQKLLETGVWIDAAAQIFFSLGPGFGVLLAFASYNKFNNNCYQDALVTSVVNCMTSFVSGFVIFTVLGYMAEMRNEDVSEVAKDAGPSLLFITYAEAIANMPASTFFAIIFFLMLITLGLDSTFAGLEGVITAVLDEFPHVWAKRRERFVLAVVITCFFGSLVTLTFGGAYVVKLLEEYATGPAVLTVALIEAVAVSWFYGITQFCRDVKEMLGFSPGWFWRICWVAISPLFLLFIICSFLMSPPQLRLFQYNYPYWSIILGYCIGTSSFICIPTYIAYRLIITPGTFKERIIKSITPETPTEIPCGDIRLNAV
# assay: Binding experiment for the 5HT-transporter ([3H]paroxetine, human platelet membranes)
# settings: [3H]paroxetine 0.5 nM, read-out: h-5HTT pIC50 (converted)
Form entry: enter the amount, then its unit.

Reference set, count: 3
# smiles.entry, IC50
data = [
    ("C/C(=C\\c1ccccc1)CN1CCC(Nc2nccn(-c3cccc(N4CCN(c5ccccc5)CC4)c3)c2=O)CC1", "200 nM"),
    ("CCCN(C)C(=O)Cn1ccnc(NC2CCN(C/C(C)=C/c3ccccc3)CC2)c1=O", "1580 nM"),
    ("C/C(=C\\c1ccccc1)CN1CCC(Nc2nccn(-c3ccc(C(=O)N4CCN(C)CC4)cc3)c2=O)CC1", "501 nM"),
]

Now take the following compound into account.
Query string: Which IC50 value belongs to `C=CCN1CCN(C(=O)c2ccc(-n3ccnc(NC4CCN(C/C(C)=C/c5ccccc5)CC4)c3=O)cc2)CC1` ?
Result string: 501 nM
